All values here come from PubChem BioAssay (NCI).

- System: CCRF-CEM leukemia
- PROCEDURE TEXT: NCI tumour cell line growth inhibition, 48 h
Each record here notes measured TGI.
MEASURED QUANTITY: TGI (µM)

>>> recorded_result("Fc1ccc(C2CC(c3cccc(Nc4ccncc4)c3)=NN2c2ccccc2)cc1 (configuration not stated)")
10.2
>>> recorded_result("Cc1c(C(=O)/C=C/c2ccc([N+](=O)[O-])cc2)[n+](=O)c2ccccc2n1[O-]")
99.2
>>> recorded_result("O=C(O)c1cc(-c2ccc(-c3ccccc3)cc2)nc2cc3ccccc3cc12")
39.8

* * *

Each record here notes measured TGI.
- Tested on: DLD-1 colon
- PROCEDURE TEXT: NCI tumour cell line growth inhibition, 48 h
MEASURED QUANTITY: TGI

>>> recorded_result("C=CCc1cc(OC)c(O)c(C(=O)/C=C/c2ccc(OC)c(OC)c2)c1")
"37.2 µM"
>>> recorded_result("Cc1cc(N(CCC#N)CCC#N)ccc1/C(Sc1ccccc1)=C(\\NC(=O)/C=C/c1ccccc1)C(=O)Sc1ccccc1")
"9.95 µM"
>>> recorded_result("N#CC(Cl)CS(=O)(=O)c1ccccc1 (stereo not drawn)")
"3.98 µM"
>>> recorded_result("CC(=O)NNc1nc(C)c(C(=O)/C=C/c2ccc(N(C)C)cc2)s1")
"> 100 µM"
>>> recorded_result("CS(=O)(=O)ON1C(=O)c2ccc(N)cc2C1=O")
"> 100 µM"
>>> recorded_result("CC1=CP(=O)(OC(C)C)C=C(C)C1=C(Cl)Cl (stereo not drawn)")
"> 100 µM"
>>> recorded_result("Oc1ccc(I)c2cccnc12")
"> 100 µM"
>>> recorded_result("Nc1nc2c(ncn2C2OC(CO)C(O)C2O)c(=O)o1 (stereo not drawn)")
"> 100 µM"
>>> recorded_result("Nc1nc(N)c2c(Cl)c(CNc3ccc(Cl)c(Cl)c3)ccc2n1")
"11.8 µM"
>>> recorded_result("NC(N)=NCCCC(Nc1c2ccccc2nc2ccccc12)C(=O)O (stereo not drawn)")
"> 100 µM"
>>> recorded_result("[N-]=[N+]=NC1(Cc2ccccc2)C(=O)Nc2ccccc2C1=O (stereo not drawn)")
"> 100 µM"
>>> recorded_result("O=C(Nc1ccc(C(F)(F)F)cc1[N+](=O)[O-])C(=O)Nn1c(=S)[nH]c2ccccc2c1=O")
"> 100 µM"
>>> recorded_result("Cc1[nH]c2ccccc2c1/C=C/c1c(C)[nH]c2ccccc12")
"> 100 µM"

* * *

Each record here notes measured TGI.
- Tested on: NCI-H460 lung
- PROCEDURE TEXT: NCI tumour cell line growth inhibition, 48 h
MEASURED QUANTITY: TGI

>>> recorded_result("Cc1cc2c(cc1Cl)SC(NNC(=O)c1ccccc1)=NS2(=O)=O")
"> 10 µM"
>>> recorded_result("c1ccc(C2=Nc3ccccc3N3CNN=C23)cc1")
"> 100 µM"
>>> recorded_result("CC(=O)c1ccc(NC(=O)C(=O)CC(=O)c2sc(-n3nc(-c4ccccc4)cc3-c3ccccc3)nc2C)cc1")
"> 100 µM"
>>> recorded_result("COc1cccc(N2C(=N)/C(=C3\\Nc4ccccc4S3)CC2=O)c1")
"26.3 µM"
>>> recorded_result("O=C(Cn1c2ccc(Br)cc2c2nc3ccccc3nc21)NNC(=O)NC1CCCCC1")
"> 100 µM"
>>> recorded_result("O=C(N[C@H](CO)[C@H](O)c1ccc([N+](=O)[O-])cc1)C(Cl)Cl")
"> 100 µM"
>>> recorded_result("COC(=O)c1ccccc1C1CN=NC12Cc1cc3c(cc1C2=O)CCC3 (configuration not stated)")
"> 100 µM"
>>> recorded_result("C/C=C(/C)C(=O)OC1C=C(CO)C(=O)C(OC(=O)C2(C)OC2C)C1C(C)C (configuration not stated)")
"8.27 µM"
>>> recorded_result("CC1(C)COC(c2cccc(C(O)c3ccc(Cl)cc3)c2)=N1 (configuration not stated)")
"> 100 µM"
>>> recorded_result("Cc1cc2c3c(nc4ccccc42)C(=O)c2cccnc2-c3n1")
"1.06 µM"
>>> recorded_result("O=[N+]([O-])c1ccc(C2=NOC(c3ccccc3)N2C23CC4CC(CC(C4)C2)C3)cc1 (configuration not stated)")
"47.5 µM"
>>> recorded_result("O=C(Nc1nc2ccc(OC(F)(F)F)cc2s1)c1ccc(F)cc1")
"20.7 µM"
>>> recorded_result("CN(C)Cc1ccc(O)c(CN(C)C)n1")
"> 100 µM"
>>> recorded_result("Cc1ccc(/C=C(/C#N)n2nnc3cccc(F)c32)cc1")
"2.13 µM"
>>> recorded_result("Nc1nc2c(ncn2C2OC(CO)C(O)C2O)c(=O)o1 (configuration not stated)")
"> 100 µM"
>>> recorded_result("COc1cc2c3c(n(CCCNCCCCN)c(=O)c2cc1OC)-c1cc2c(cc1C3=O)OCO2")
"7.38 µM"
>>> recorded_result("Cc1ccc(S(=O)(=O)NC(=O)NC(CCCCN)C(=O)O)cc1 (configuration not stated)")
"> 100 µM"
>>> recorded_result("COc1ccc(/C=C/C(=O)C(=O)/C=C/c2ccc(OC)c(OC)c2)cc1OC")
"11.2 µM"
>>> recorded_result("c1ccc(C2(c3cc4ccccc4[nH]3)OCCO2)nc1")
"> 100 µM"
>>> recorded_result("O=C(O)CCC1C(=O)C2CCN1CC2 (configuration not stated)")
"> 100 µM"
>>> recorded_result("C/C(=C\\CNc1ncnc2c1ncn2C1CCCCO1)COP(=O)(O)O (configuration not stated)")
"> 100 µM"
>>> recorded_result("COc1ccc(/C=N/NS(=O)(=O)c2ccc(/C=C3\\NC(=O)NC3=O)cc2)cc1")
"> 100 µM"

* * *

Each record here notes measured TGI.
- System: RXF 393 renal
- PROCEDURE TEXT: NCI tumour cell line growth inhibition, 48 h
MEASURED QUANTITY: TGI (µM)

>>> recorded_result("COc1ccc(C[C@@H]2OC3(C=CC(=O)CC3Sc3ccccc3)O[C@H]2Cc2ccc(OC)cc2)cc1 (stereo partly drawn)")
0.348
>>> recorded_result("CC(C)(C)c1cc(Cc2ccc(S(C)(=O)=O)cc2)c(O)c(C(C)(C)C)c1")
26.1
>>> recorded_result("COc1ccc(/C=C/C(=O)C(=O)/C=C/c2ccc(OC)c(OC)c2)cc1OC")
3.04
>>> recorded_result("CCN(CC)Cc1cc(Nc2ccnc3ccc(OC)cc23)ccc1O")
10.9
>>> recorded_result("O=c1c2ccccc2nc(-c2ccccc2)n1/N=C/c1ccccc1[N+](=O)[O-]")
80.4
>>> recorded_result("O=C(CNc1ccc([N+](=O)[O-])cc1)Nn1c(-c2ccccc2)nc2ccccc2c1=O")
8.84

* * *

Each record here notes measured TGI.
- Tested on: U251 CNS
- PROCEDURE TEXT: NCI tumour cell line growth inhibition, 48 h
MEASURED QUANTITY: TGI (µM)

>>> recorded_result("COc1ccc(/C=C/C(=O)C(=O)/C=C/c2ccc(OC)c(OC)c2)cc1OC")
3.6
>>> recorded_result("C[C@H]1[C@H]2[C@H](C[C@@]3(C)C4=CC[C@H]5C(C)(C)[C@@H](OC6OCC(O)C(O)C6O)CC[C@@]56C[C@@]46CC[C@]23C)O[C@@]2(O)[C@@H]1OC(C)(C)[C@H]2O (some centres undefined)")
5.5
>>> recorded_result("COC(=O)c1cc(C#N)[nH]c1-c1ccc(Br)s1")
24.8
>>> recorded_result("C=C(CC)C(=O)c1ccc(OCC(=O)O)c(Cl)c1Cl")
29.7
>>> recorded_result("Nc1ccc(C2(c3ccc(N)cc3)C3CC4CC(C3)CC2C4)cc1")
37
>>> recorded_result("CN1CCN(CCCCCOc2cc(O)c3c(=O)cc(-c4ccccc4)oc3c2)CC1")
4.86
>>> recorded_result("CC(=O)NC(CCc1ccc(Cl)c(Cl)c1)c1cccc(O)c(=O)c1 (centres undefined)")
11.5
>>> recorded_result("Cc1cc2c(C(C)C)c(O)c(O)c(/C=N/O)c2c(O)c1-c1c(C)cc2c(C(C)C)c(O)c(O)c(/C=N/O)c2c1O")
11.8

* * *

Each record here notes measured GI50.
- Test system: NCI-H23 lung
- PROCEDURE TEXT: NCI tumour cell line growth inhibition, 48 h
MEASURED QUANTITY: GI50

>>> recorded_result("O=C1NC(=NCCc2ccccc2F)S/C1=C\\c1ccc2ncccc2c1")
"6120 nM"
>>> recorded_result("Oc1c(Cl)cc(Cl)c(Cl)c1Cc1c(O)c(Cl)cc(Cl)c1Cl")
"593 nM"
>>> recorded_result("CCCCNC(=O)CC1=C(C)/C(=C/c2[nH]c(-c3ccc[nH]3)cc2OC)N=C1C")
"3030 nM"
>>> recorded_result("Cc1c(Br)c(Br)c2c3c1nc(N1CCNCC1)n3CCC2")
"2010 nM"
>>> recorded_result("CCOC(=O)C(Cc1ccccc1)n1c(O)c(/C=N/c2ncc(Cc3ccc(Cl)cc3Cl)s2)sc1=S (stereo unspecified)")
"1900 nM"
>>> recorded_result("COc1cc(C2C=C(C)N=C3SC=C(C)N32)cc(OC)c1OC (stereo unspecified)")
"1770 nM"
>>> recorded_result("COc1cc2c3c(n(CCCNCCCCN)c(=O)c2cc1OC)-c1cc2c(cc1C3=O)OCO2")
"1630 nM"
>>> recorded_result("CC(=O)NC(CCc1ccc(Cl)c(Cl)c1)c1cccc(O)c(=O)c1 (stereo unspecified)")
"1110 nM"
>>> recorded_result("CC(C)N(CCNc1nc(C(Cl)(Cl)Cl)nc2cc(Cl)ccc12)C(C)C")
"1610 nM"
>>> recorded_result("CCCCCCCCCCCCCCCC(=O)OCC1OC(OCCCC)[C@H](O[C@@H]2OC(C)C(OC(=O)CCC)C(O)C2O)C(O)C1O (stereo partly specified)")
"16200 nM"
>>> recorded_result("C=CCc1cc(O)ccc1O")
"> 100000 nM"
>>> recorded_result("C=C1CC[C@@](C)(c2cc(Br)c(C)cc2OC(C)=O)[C@H]1C")
"13900 nM"
>>> recorded_result("O=C1NC(c2cccc3ccccc23)Nc2ccc(Cl)cc21 (stereo unspecified)")
"11 nM"
>>> recorded_result("Cc1cc2c3c(nc4ccccc42)C(=O)c2cccnc2-c3n1")
"142 nM"
>>> recorded_result("COC(=O)COc1ccccc1/C=C1/N=C(c2ccccc2)N(c2c(C)n(C)n(-c3ccccc3)c2=O)C1=O")
"> 100000 nM"
>>> recorded_result("N#Cc1ncc(-c2ccc(C(F)(F)F)cc2)c(NC2CCCCCC2)n1")
"6480 nM"
